System: uninfected Vero cells
Test: in vitro
Format: cell-based
Details: African green monkey
testReadout: CC50 (µM)

COc1cc(NC(C(=O)c2c[nH]c3c(F)c(F)ccc23)c2ccc(Cl)cc2OC)cc(OCCO)c1 (single isomer, unassigned) [Compound 11B] :: 11
COc1cc(NC(C(=O)c2c[nH]c3cc(Cl)ccc23)c2ccc(Cl)cc2OC)cc(OCCO)c1 (single isomer, unassigned) [Compound 4A] :: 13
COc1cc(NC(C(=O)c2c[nH]c3c(C)cc(F)cc23)c2ccc(Cl)cc2OC)cc(OCCO)c1 (single isomer, unassigned) [Compound 8A] :: 11
COc1cc(NC(C(=O)c2c[nH]c3cc(OC)c(C)cc23)c2ccc(Cl)cc2OC)cc(OCCO)c1 (single isomer, unassigned) [Compound 6A] :: 13
COc1cc(NC(C(=O)c2c[nH]c3c(C)c(F)ccc23)c2ccc(Cl)cc2OC)cc(OCCO)c1 (single isomer, unassigned) [Compound 2A] :: 13
COc1cc(NC(C(=O)c2c[nH]c3cc(F)ccc23)c2ccc(Cl)cc2OC)cc(OCCO)c1 (single isomer, unassigned) [Compound 1A] :: 14
COc1cc(NC(C(=O)c2c[nH]c3c(F)cc(C)cc23)c2ccc(Cl)cc2OC)cc(OCCO)c1 (single isomer, unassigned) [Compound 10A] :: 12
COc1cc(NC(C(=O)c2c[nH]c3cc(F)c(F)cc23)c2ccc(Cl)cc2OC)cc(OCCO)c1 (single isomer, unassigned) [Compound 9A] :: 12
COc1cc(NC(C(=O)c2c[nH]c3cc(OC)ccc23)c2ccc(Cl)cc2OC)cc(OCCO)c1 (single isomer, unassigned) [Compound 5A] :: 11
COc1cc(NC(C(=O)c2c[nH]c3cc(OC)c(F)cc23)c2ccc(Cl)cc2OC)cc(OCCO)c1 (single isomer, unassigned) [Compound 7A] :: 12
COc1cc(NC(C(=O)c2c[nH]c3c(C)c(Cl)ccc23)c2ccc(Cl)cc2OC)cc(OCCO)c1 (single isomer, unassigned) [Compound 3A] :: 12
